The binders listed here are annotated with their fold change of affinity.
# TARGET_UNDER_TEST: T1, Human CD137 ECD (human)
# T1 construct: entry includes C-terminal His-tag and biotin acceptor peptide; also called human CD137 extracellular domain; 4-1BB
# PROTOCOL_TEXT: Biacore SPR, vs parent H183/L072
Provide only the numeric value, understood in fold.

Query: Give the measured fold change of affinity of H183/L072 VL G91L (antibody, name in Kabat numbering, V domains shown, Dual-Ig) VH: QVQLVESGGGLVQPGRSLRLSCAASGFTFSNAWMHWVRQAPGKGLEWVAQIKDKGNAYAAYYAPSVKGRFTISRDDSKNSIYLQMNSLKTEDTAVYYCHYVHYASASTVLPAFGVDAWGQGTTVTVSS VL: DIVMTQSPLSLPVTPGEPASISCQASQELVHMNRNTYLHWYQQKPGQAPRLLIYKVSNRFPGVPDRFSGSGSGTDFTLKISRVEAEDVGVYYCAQLTSVPFTFGQGTKLEIK .
Reply: 0

Query: Give the measured fold change of affinity of H183/L072 VL L33N (antibody, name in Kabat numbering, V domains shown, Dual-Ig) VH: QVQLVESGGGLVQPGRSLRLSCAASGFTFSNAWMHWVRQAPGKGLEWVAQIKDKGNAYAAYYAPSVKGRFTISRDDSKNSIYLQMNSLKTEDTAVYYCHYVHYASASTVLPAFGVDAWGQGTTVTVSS VL: DIVMTQSPLSLPVTPGEPASISCQASQELVHMNRNTYNHWYQQKPGQAPRLLIYKVSNRFPGVPDRFSGSGSGTDFTLKISRVEAEDVGVYYCAQGTSVPFTFGQGTKLEIK .
Reply: 0.1

Query: Give the measured fold change of affinity of H183/L072 VL S26N (antibody, name in Kabat numbering, V domains shown, Dual-Ig) VH: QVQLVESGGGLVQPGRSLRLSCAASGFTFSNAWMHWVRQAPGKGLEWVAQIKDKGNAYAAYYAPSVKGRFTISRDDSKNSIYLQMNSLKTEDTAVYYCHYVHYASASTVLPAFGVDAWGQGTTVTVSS VL: DIVMTQSPLSLPVTPGEPASISCQANQELVHMNRNTYLHWYQQKPGQAPRLLIYKVSNRFPGVPDRFSGSGSGTDFTLKISRVEAEDVGVYYCAQGTSVPFTFGQGTKLEIK .
Reply: 0.7

Query: Give the measured fold change of affinity of H183/L072 VL T97R (antibody, name in Kabat numbering, V domains shown, Dual-Ig) VH: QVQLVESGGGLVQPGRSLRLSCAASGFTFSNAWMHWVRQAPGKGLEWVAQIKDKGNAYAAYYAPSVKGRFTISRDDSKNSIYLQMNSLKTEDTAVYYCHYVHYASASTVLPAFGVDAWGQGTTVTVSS VL: DIVMTQSPLSLPVTPGEPASISCQASQELVHMNRNTYLHWYQQKPGQAPRLLIYKVSNRFPGVPDRFSGSGSGTDFTLKISRVEAEDVGVYYCAQGTSVPFRFGQGTKLEIK .
Reply: 0.9

Query: Give the measured fold change of affinity of H183/L072 VL N53A (antibody, name in Kabat numbering, V domains shown, Dual-Ig) VH: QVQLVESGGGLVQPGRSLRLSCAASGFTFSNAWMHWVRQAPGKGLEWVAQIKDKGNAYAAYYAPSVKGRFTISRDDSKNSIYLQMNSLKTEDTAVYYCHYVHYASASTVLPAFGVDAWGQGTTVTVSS VL: DIVMTQSPLSLPVTPGEPASISCQASQELVHMNRNTYLHWYQQKPGQAPRLLIYKVSARFPGVPDRFSGSGSGTDFTLKISRVEAEDVGVYYCAQGTSVPFTFGQGTKLEIK .
Reply: 0.7

Query: Give the measured fold change of affinity of H183/L072 VL Q24R (antibody, name in Kabat numbering, V domains shown, Dual-Ig) VH: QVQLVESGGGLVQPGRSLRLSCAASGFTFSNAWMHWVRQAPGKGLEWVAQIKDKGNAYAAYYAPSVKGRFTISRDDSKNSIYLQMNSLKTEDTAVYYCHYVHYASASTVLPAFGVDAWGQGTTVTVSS VL: DIVMTQSPLSLPVTPGEPASISCRASQELVHMNRNTYLHWYQQKPGQAPRLLIYKVSNRFPGVPDRFSGSGSGTDFTLKISRVEAEDVGVYYCAQGTSVPFTFGQGTKLEIK .
Reply: 0.9

Query: Give the measured fold change of affinity of H183/L072 VL N28S (antibody, name in Kabat numbering, V domains shown, Dual-Ig) VH: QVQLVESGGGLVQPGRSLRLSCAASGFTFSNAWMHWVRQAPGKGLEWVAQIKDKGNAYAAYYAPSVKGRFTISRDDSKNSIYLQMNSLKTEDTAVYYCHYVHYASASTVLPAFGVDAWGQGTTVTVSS VL: DIVMTQSPLSLPVTPGEPASISCQASQELVHMSRNTYLHWYQQKPGQAPRLLIYKVSNRFPGVPDRFSGSGSGTDFTLKISRVEAEDVGVYYCAQGTSVPFTFGQGTKLEIK .
Reply: 0.5

Query: Give the measured fold change of affinity of H183/L072 VL G91R (antibody, name in Kabat numbering, V domains shown, Dual-Ig) VH: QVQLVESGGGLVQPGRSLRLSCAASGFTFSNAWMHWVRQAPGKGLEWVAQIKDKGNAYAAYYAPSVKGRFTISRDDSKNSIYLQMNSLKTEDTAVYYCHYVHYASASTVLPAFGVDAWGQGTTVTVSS VL: DIVMTQSPLSLPVTPGEPASISCQASQELVHMNRNTYLHWYQQKPGQAPRLLIYKVSNRFPGVPDRFSGSGSGTDFTLKISRVEAEDVGVYYCAQRTSVPFTFGQGTKLEIK .
Reply: 0

Read the next record carefully.
Query: Give the measured fold change of affinity of H183/L072 VL T92I (antibody, name in Kabat numbering, V domains shown, Dual-Ig) VH: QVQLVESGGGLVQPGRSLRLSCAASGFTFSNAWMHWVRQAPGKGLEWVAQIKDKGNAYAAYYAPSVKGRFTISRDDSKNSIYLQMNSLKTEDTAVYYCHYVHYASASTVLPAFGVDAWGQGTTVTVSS VL: DIVMTQSPLSLPVTPGEPASISCQASQELVHMNRNTYLHWYQQKPGQAPRLLIYKVSNRFPGVPDRFSGSGSGTDFTLKISRVEAEDVGVYYCAQGISVPFTFGQGTKLEIK .
Reply: 0.1
